Data origin, for the record: ChEMBL document CHEMBL1201862

test system: Hs-578T; assay: NCI tumour cell line growth inhibition, 48 h
Calls of active or inactive are those of the source. Cut-off read from the data, not from the text of the source: active = GI50 up to about 1.1 µM and inactive = higher.
measured.endpoint: GI50

chemical.string | target.desc | GI50
C/C(=C1\N=C(c2ccccc2)OC1=O)c1ccccc1 | Hs-578T | > 100 µM (inactive)
OCCCCn1cc(Cn2ncc3c(O)ncnc32)nn1 | Hs-578T | > 100 µM (inactive)

Prompt: Can you look up the measured GI50 of C=C(C)[C@@]1(O)CCCC[C@@H]1CC(Sc1ccccc1)Sc1ccccc1 for me?
Completion: 15.7 µM (inactive)

* * *

test system: PC-3; assay: NCI tumour cell line growth inhibition, 48 h
Calls of active or inactive are those of the source. Cut-off read from the data, not from the text of the source: active = GI50 up to about 1.1 µM and inactive = higher.
// one of yes (active), no (inactive), no free text

compound | answer.label
COc1cc(/C=N/n2c(C)n[nH]c2=O)cc(OC)c1OC | no
COc1ccc(-n2c(=O)n(-c3ccccc3)c(=O)n2-c2ccc(OC)cc2)cc1 | no
COc1cc(C(=O)O)c([N+](=O)[O-])c(OC)c1OC | no
CNC(=O)OCc1nc(N=[N+]=[N-])n(C)c1COC(=O)NC | no
O=C1CC(CC(OCc2ccccc2)C(COCc2ccccc2)OCc2ccccc2)CC(=O)N1 (stereo not drawn) | no

Prompt: Dear all, I need the recorded test outcome for O=C1/C(=C/c2ccc(Br)s2)NC(=S)N1c1ccccc1 , thank you.
Completion: no

Prompt: # lookup: test call for CCOC(=O)c1sc(N)nc1N1CCCC1
Completion: no

Prompt: Just curious, what result did COc1ccc(C(=O)/C=C/c2ccc(OCCCOc3ccc(/C=C/C(=O)c4ccc(OC)c(OC)c4)cc3)cc2)cc1OC get here?
Completion: no

Prompt: Outcome? C=C1[C@@H](O)C[C@@]23CC[C@@H]4[C@@]5(C)CC[C@@H](OC(C)=O)C(C)(C)[C@@H]5C[C@@H](OC5OC(COC(C)=O)C(O)C(O)C5O)[C@@]4(C)C2=CC[C@H]3[C@H]1C (stereo partly drawn)
Completion: no

Prompt: Hello, I am checking results. What call was entered for c1ccc([P+](CC[P+](c2ccccc2)(c2ccccc2)c2ccccc2)(c2ccccc2)c2ccccc2)cc1 ?
Completion: no

Prompt: Could you kindly confirm the outcome this assay logged for COC(=O)C(Cc1ccccc1)NP(=O)(O)OCC1OC(n2ccc(N)nc2=O)C(O)C1O (stereo not drawn) ?
Completion: no

Prompt: // param item: COc1ccc(OC)c2c(=O)cc(-c3ccccc3)[nH]c12 ; yields the recorded call
Completion: no

Prompt: Please let me know the test result on file for C/C(=N\NC(=S)N1CCCC1)c1nc2cccnc2[nH]1 .
Completion: yes

Prompt: Outcome logged for CCCCC1(N=[N+]=[N-])C(=O)c2cccc3c2N(CCC3)C1=O (stereo not drawn) in this assay:
Completion: no

Prompt: Name the outcome recorded for CN(C)CCCNc1nnc(NCCCN(C)C)c2c(=O)c3sccc3[nH]c12 in the assay.
Completion: no

Prompt: Check the results log: what was the call for O=C1CNNC(CSc2nc3ccc(I)cc3c(=O)n2Cc2ccccc2)=N1 ?
Completion: no

Prompt: What is the recorded call for this compound in the test? O=C1C[C@@]23CCC4(CC2=CCC[C@H]3O1)OCCO4
Completion: no

Prompt: Recorded test outcome, item CCOC(=O)c1nc2ccccc2nc1Nc1ccc(OC)cc1
Completion: no
